system: CP291; assay: qHTS profiling for inhibitors of Plasmodium falciparum proliferation (AID 504749); note: nearly all actives have a fitted effect of over 60% in size; conditions: P. falciparum in erythrocytes, SYBR Green DNA, 72 h; series mostly up to 28.7 µM
Records with an inconclusive call do not appear. Activity calls are given as the source filed them. Calls come from the whole dose curve; as a rule, active = well fitted inhibition curve with a large enough effect; inconclusive = small, poorly fitted or top-dose-only effect; inactive = flat fitted curve, though single readings scatter.
Outcomes: active, inactive

{"smi": "CCCOc1ccccc1-c1nc2n[nH]nc2c(=O)[nH]1", "group": "inactive"}
{"smi": "FC(F)(F)c1ccccc1-n1ccnc1", "group": "inactive"}
{"smi": "C[N+](C)(C)CCOC(N)=O", "group": "inactive"}
{"smi": "Cc1nnc(SCC2=C(C(=O)O)N3C(=O)[C@@H](NC(=O)Cn4cnnn4)[C@H]3SC2)s1", "group": "inactive"}
{"smi": "CCCCNc1ccc(C(=O)OCCN(C)C)cc1", "group": "inactive"}
{"smi": "COC(=O)[C@@H](N)Cc1ccc(O)c(O)c1", "group": "inactive"}
{"smi": "CCN1CCC[C@H]1CNC(=O)c1c(O)c(Cl)cc(Cl)c1OC", "group": "inactive"}
{"smi": "Cc1ccc(=O)n(-c2ccccc2)c1", "group": "inactive"}
{"smi": "CN(C)CCCN1c2ccccc2Sc2ccc(C(F)(F)F)cc21", "group": "inactive"}
{"smi": "CCCC(C(=O)OCCN(CC)CC)(c1ccccc1)c1ccccc1", "group": "active"}
{"smi": "NC/C=C/C(=O)O", "group": "inactive"}
{"smi": "CN(C)C(=O)Oc1cccc([N+](C)(C)C)c1", "group": "inactive"}
{"smi": "CCCCNC(=O)NS(=O)(=O)c1ccc(C)cc1", "group": "inactive"}

====

system: N140; assay: qHTS profiling for inhibitors of Plasmodium falciparum proliferation (AID 504749); note: nearly all actives have a fitted effect of over 60% in size; details: P. falciparum in erythrocytes, SYBR Green DNA, 72 h; series mostly up to 28.7 µM
Results filed as inconclusive are left out. The source made the active and inactive calls. The call rests on the fitted dose curve; in most records, active means well fitted inhibition curve with a large enough effect; inconclusive means small, poorly fitted or top-dose-only effect; inactive means flat fitted curve, though single readings scatter.
Outcomes: active, inactive

{"molecule": "CCCN(CCC)CCc1cccc2c1CC(=O)N2", "system.under.test": "N140", "group": "inactive"}
{"molecule": "CCOC(=O)c1cnc2c(cnn2CC)c1NN=C(C)C", "system.under.test": "N140", "group": "inactive"}
{"molecule": "Cc1nc2ccccn2c(=O)c1CCN1CCC(C(=O)c2ccc(F)cc2)CC1", "system.under.test": "N140", "group": "inactive"}
{"molecule": "O=C1NCN(c2ccccc2)C12CCN(CCCC(c1ccc(F)cc1)c1ccc(F)cc1)CC2", "system.under.test": "N140", "group": "active"}
{"molecule": "CC(=O)[C@]1(O)Cc2c(O)c3c(c(O)c2[C@@H](O[C@H]2C[C@H](N)[C@H](O)[C@H](C)O2)C1)C(=O)c1ccccc1C3=O", "system.under.test": "N140", "group": "active"}
{"molecule": "CCCOc1ccccc1-c1nc2n[nH]nc2c(=O)[nH]1", "system.under.test": "N140", "group": "inactive"}
{"molecule": "NCCCNCCSP(=O)(O)O", "system.under.test": "N140", "group": "inactive"}
{"molecule": "CCOC(=O)C1=C(C)NC(C)=C(C(=O)OC)C1c1cccc(Cl)c1Cl (stereo not given)", "system.under.test": "N140", "group": "inactive"}
{"molecule": "CCCCOCCOCCOCc1cc2c(cc1CCC)OCO2", "system.under.test": "N140", "group": "inactive"}
{"molecule": "Fc1ccc(C(c2ccc(F)cc2)N2CCN(C/C=C/c3ccccc3)CC2)cc1", "system.under.test": "N140", "group": "active"}
{"molecule": "CCN(CC)CCNC(=O)c1cc(S(C)(=O)=O)ccc1OC", "system.under.test": "N140", "group": "inactive"}
{"molecule": "c1cnc(N2CCN(Cc3ccc4c(c3)OCO4)CC2)nc1", "system.under.test": "N140", "group": "inactive"}
{"molecule": "CSc1ccc(C(=O)c2[nH]c(=O)[nH]c2C)cc1", "system.under.test": "N140", "group": "inactive"}
{"molecule": "O=C(O)CP(=O)(O)O", "system.under.test": "N140", "group": "inactive"}
{"molecule": "Cc1ccc(=O)n(-c2ccccc2)c1", "system.under.test": "N140", "group": "inactive"}
{"molecule": "O=C1CC2(CCCC2)CC(=O)N1CCCCN1CCN(c2ncccn2)CC1", "system.under.test": "N140", "group": "inactive"}
{"molecule": "CCCCNC(=O)NS(=O)(=O)c1ccc(C)cc1", "system.under.test": "N140", "group": "inactive"}
{"molecule": "COc1cc(C(=O)OCCCN2CCCN(CCCOC(=O)c3cc(OC)c(OC)c(OC)c3)CC2)cc(OC)c1OC", "system.under.test": "N140", "group": "active"}
{"molecule": "CC[N+](C)(C)c1cccc(O)c1", "system.under.test": "N140", "group": "inactive"}
{"molecule": "O=C(O)CN(CCOCCOCCN(CC(=O)O)CC(=O)O)CC(=O)O", "system.under.test": "N140", "group": "inactive"}
{"molecule": "C#CCN(C)CCCOc1ccc(Cl)cc1Cl", "system.under.test": "N140", "group": "inactive"}
{"molecule": "COc1cc2c(cc1OC)-c1cc(=Nc3c(C)cc(C)cc3C)n(C)c(=O)n1CC2", "system.under.test": "N140", "group": "active"}
{"molecule": "O=c1[nH]c(=O)n([C@H]2C[C@H](O)[C@@H](CO)O2)cc1Br", "system.under.test": "N140", "group": "inactive"}
{"molecule": "O=C(CCNNC(=O)c1ccncc1)NCc1ccccc1", "system.under.test": "N140", "group": "inactive"}
{"molecule": "CCn1ccnc1CC1COc2ccccc2O1 (stereo not given)", "system.under.test": "N140", "group": "inactive"}
{"molecule": "CC(C)(Oc1ccc(CCNC(=O)c2ccc(Cl)cc2)cc1)C(=O)O", "system.under.test": "N140", "group": "inactive"}
{"molecule": "Cc1cc(C)c(/C=C2\\C(=O)Nc3ccccc32)[nH]1", "system.under.test": "N140", "group": "inactive"}
{"molecule": "CN(C)C(=O)Oc1ccc[n+](C)c1", "system.under.test": "N140", "group": "inactive"}
{"molecule": "NC(=O)N1c2ccccc2C=Cc2ccccc21", "system.under.test": "N140", "group": "inactive"}
{"molecule": "C[N+](C)(C)CCCCCCCCCC[N+](C)(C)C", "system.under.test": "N140", "group": "active"}
